Entry source: patent US20250340631A1

Biological target: T1, human CLDN18.2 (human)
T1 construct: the HEK293 line was made with a GenScript plasmid; also called hCLDN18.2
Assay: competition FACS on HEK293/hCLDN18.2 cells; competitor 200 nM biotinylated PR004549
recordedMetric: pIC50
API: returns pIC50 as number; meaning -log10 of concentration in mol/L.

>>> observedresult("PR004949 (antibody, V domains shown, anti-CLDN18.2 HCAb: VH fused to human IgG1 Fc, no light chain; also called R1029P021C02) VH: EVQLVESGGGLVQPGGSLRLSCAASGFTFSAYWMHWVRQVPGRGLVWVSRINSDGSRTIYADSVKGRFTISRDNAKNTLYLQMNSLRAEDTAVYLCARGEDHDMLTGYPVRGQGTMVTVSS")
7.51
>>> observedresult("PR004533 (antibody, V domains shown, anti-CLDN18.2 HCAb: VH fused to human IgG1 Fc, no light chain; also called R1029P021E10) VH: EVQLVESGGGLVQPGGSLRLSCAASGFTFSSYWMHWVRQVPGKGLVWVSRINSDGSRTIYADSVKGRFTISRDNAKNTLYLQMNSLRAEDTAVYYCARGEDHDILTGYPIRGQGTTVTVSS")
7.63
>>> observedresult("PR004540 (antibody, V domains shown, anti-CLDN18.2 HCAb: VH fused to human IgG1 Fc, no light chain; also called R1029P037B07) VH: EVQLVESGGGLVQPGGSLRLSCAASGFTFSIYWMHWVRQVPGKGLVLVSRISSDGNYTSYADSVKGRFTISRDNAKNTLYLQMNSLRAEDTAVYLCARGEDHDMLTGYPVRGQGTTVTVSS")
7.30
>>> observedresult("PR004536 (antibody, V domains shown, anti-CLDN18.2 HCAb: VH fused to human IgG1 Fc, no light chain; also called R1029P028A11) VH: EVQLVESGGGLVQPGGSLRLSCAASGFTFSSYWMYWVRQVPGKGLVWVSHINSDGSTTQYADSVKGRFTISRDNAKNMLYLQMNSLRAEDTAVYYCARDFPVLGGSHFDFQHWGQGTLVTVSS")
7.13
>>> observedresult("PR004953 (antibody, V domains shown, anti-CLDN18.2 HCAb: VH fused to human IgG1 Fc, no light chain; also called R1029P024B07) VH: EVQLVESGGGVVQPGRSLRLSCAASGFTFSSYGMHWVRQAPGKGLEWVAVIGYDGRNKYYADSVKGRFTISRDNSKNTLFLQMDNLRAEDTALYYCARHFPSLPGTTDTFDIRGPGTMVTVSS")
7.86

Documented pIC50 of PR004227 (antibody, V domains shown, anti-CLDN18.2 HCAb: VH fused to human IgG1 Fc, no light chain; also called R1029P(CG20)001B02) VH: EVQLVESGGGLVQPGGSLRLSCAASGFTFSSYWMHWVRQAPGKGLEWVSYINNDGSSTRYADSVKGRFTISRDNAKNTLYLQMNSLRAEDTAVYYCTEAPPYGNYERDYWGQGTLVTVSS : 7.69

Per the records, this binder ( PR004950 (antibody, V domains shown, anti-CLDN18.2 HCAb: VH fused to human IgG1 Fc, no light chain; also called R1029P021F07) VH: EVQLVESGGGLVQPGGSLRLSCAASGFTFSAYWMHWVRQVPGKGLVWVSRINSDGSRTIYADSVKGRFTISRDNAKNTLYLQMNSLRAEDTAVYYCARGEDHDILTGYPIRGQGTMVTVSS ) has pIC50 equal to 7.70

Per the records, this binder ( PR000400 (antibody, human IgG1, kappa, V domains shown, also called IMAB362 analogue) VH: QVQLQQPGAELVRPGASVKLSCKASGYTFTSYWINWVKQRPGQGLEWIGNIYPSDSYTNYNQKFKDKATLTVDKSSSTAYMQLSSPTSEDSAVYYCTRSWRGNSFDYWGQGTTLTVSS VL: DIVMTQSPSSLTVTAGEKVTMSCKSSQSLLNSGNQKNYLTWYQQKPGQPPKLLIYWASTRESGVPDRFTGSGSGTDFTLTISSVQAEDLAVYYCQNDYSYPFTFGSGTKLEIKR ) has pIC50 equal to 7.94
